# testMethodNotes: NCI Yeast Anticancer Drug Screen. Data for the mec2-1 strain (AID 157)
# conditionLabel: S. cerevisiae mec2-1 strain, at 50.0 µM
About 79,000 compounds went through this panel and 15% of them were active in at least one assay; those are over-represented in the sample as a whole. Activity calls are given as the source filed them. No stated cut-off is given here; in the data, active means growth inhibition above about 70%; inactive means the rest.
The categories you may choose from are 1.0 (active), 0.0 (inactive)

Field: example entries. Status: answers known.
CCS(=O)(=O)c1ccc(/C=C/C=N/NC(=S)NCC(C)C)cc1 : 0.0
Cc1ccc2[nH]c3c(C)c4cc[n+](C)cc4c(C)c3c2c1 : 1.0
CSC(=S)Nc1cc(C)ccn1 : 1.0
N#CC(C(=O)Nc1ccccc1)C1=C(Cl)C(=O)c2ccccc2C1=O (centres undefined) : 1.0
CCCCN1C(=O)N(c2ccc(OCC)cc2)C2N(CCCC)C1C(C)(C)C2(C)C (centres undefined) : 0.0

INPUT: What did this assay record as the result for Cc1ccc(S(=O)(=O)NNC(=S)Nc2cccc3ccccc23)cc1 ?
OUTPUT: 0.0

INPUT: What did this assay record as the result for CCN(CC)CC(O)c1ccc2ccc3ccccc3c2c1 (centres undefined) ?
OUTPUT: 0.0

INPUT: What did this assay record as the result for C(=C\c1ccccc1)/COc1ccccc1C(N1CCOCC1)n1nc2ccccc2n1 (centres undefined) ?
OUTPUT: 1.0

INPUT: What did this assay record as the result for COc1ccc2ccc3ccccc3c2c1C=O ?
OUTPUT: 0.0

INPUT: What did this assay record as the result for O=C1c2ccccc2-c2n[nH]c3cccc1c23 ?
OUTPUT: 0.0

INPUT: What did this assay record as the result for O=S(=O)(CCCl)c1ccccc1Cl ?
OUTPUT: 1.0

INPUT: What did this assay record as the result for O=Nc1c(NO)ccc2nn(-c3ccccc3)nc12 ?
OUTPUT: 1.0

INPUT: What did this assay record as the result for Cc1ccc(-c2ccc(Nc3c4ccccc4nc4ccccc34)cc2)cn1 ?
OUTPUT: 1.0

INPUT: What did this assay record as the result for S=c1[nH]nc(Nc2ccc(Cl)cc2)s1 ?
OUTPUT: 1.0

INPUT: What did this assay record as the result for Oc1c(Br)cc(Br)cc1C1CCCCC1 ?
OUTPUT: 1.0

INPUT: What did this assay record as the result for OC1(c2ccccc2)CSC2=Nc3ccccc3C3CCN1N23 (centres undefined) ?
OUTPUT: 0.0

INPUT: What did this assay record as the result for COc1cc(C2SCC(=O)N2c2nnc(C(F)(F)F)s2)cc(OC)c1OC (centres undefined) ?
OUTPUT: 0.0

----------
Catalogue of compounds with associated growth inhibition
# testMethodNotes: NCI Yeast Anticancer Drug Screen. Data for the wt2 strain (AID 169);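 further: 0% = growth of vehicle-treated yeast cultures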
# conditionLabel: S. cerevisiae wt2 strain growth inhibition; at 1.2 µM; hits give high values
The panel holds about 79,000 compounds, 15% with a hit somewhere; the sample as a whole holds those more often.
// units = %; emit number, no label

These solved cases illustrate the format of a correct answer.
COc1cc2ccc(/C=C\[N+](=O)[O-])cc2cc1OC : -14
CN(C)c1ccc(C(C#N)=C(C#N)C#N)cc1 : -2
C#CCCCc1ccccc1 : -52
O=[N+]([O-])/C=C/c1ccc2ccccc2c1 : -5
OC(c1ccc(F)cc1)(c1ccc(F)cc1)C1CC1 : -25
CCOC(=O)c1cnc2cc(C(F)(F)F)ccc2c1N=[N+]=[N-] : 2
O=C(Nc1ccccc1)C(=O)C(C(=O)c1ccccc1)C(c1ccccc1)c1ccccc1 (centres undefined) : 1
Cc1ccc(S(=O)(=O)NC(=O)NC2=NC(C)(C)N(c3ccc(Cl)c(Cl)c3)C(N)=N2)cc1 : -3
CC1=C(SCCO)C(=O)c2ccccc2C1=O : -2
Cc1c(C2=C(Br)C(=O)N(C)C2=O)c(=O)n(C)c(=O)n1C : 0

INPUT: Entry O=C1NC(=O)C2C3C=CC(C3)C12 (centres undefined) needs its growth inhibition filled in; supply it.
OUTPUT: -5

INPUT: Entry CCOC(=O)c1cc(-c2ccc(Cl)cc2)c([N+](=O)[O-])n1C needs its growth inhibition filled in; supply it.
OUTPUT: 6

INPUT: Entry CCCCN1C(=O)N(c2ccc(OCC)cc2)C2N(CCCC)C1C(C)(C)C2(C)C (centres undefined) needs its growth inhibition filled in; supply it.
OUTPUT: -3

INPUT: Entry N#CN=Nc1cc(Cl)c(N=NC#N)cc1Cl needs its growth inhibition filled in; supply it.
OUTPUT: 2

INPUT: Entry CN(CCc1ccccn1)c1ccc2c(c1)Cc1ccccc1-2 needs its growth inhibition filled in; supply it.
OUTPUT: -1
